target-under-test: F508del (Homo sapiens, UniProt P13569, DEL508-508)
Construct: expressed in transfected cells
Sequence (P13569 with tags, fused parts or gaps DEL508-508): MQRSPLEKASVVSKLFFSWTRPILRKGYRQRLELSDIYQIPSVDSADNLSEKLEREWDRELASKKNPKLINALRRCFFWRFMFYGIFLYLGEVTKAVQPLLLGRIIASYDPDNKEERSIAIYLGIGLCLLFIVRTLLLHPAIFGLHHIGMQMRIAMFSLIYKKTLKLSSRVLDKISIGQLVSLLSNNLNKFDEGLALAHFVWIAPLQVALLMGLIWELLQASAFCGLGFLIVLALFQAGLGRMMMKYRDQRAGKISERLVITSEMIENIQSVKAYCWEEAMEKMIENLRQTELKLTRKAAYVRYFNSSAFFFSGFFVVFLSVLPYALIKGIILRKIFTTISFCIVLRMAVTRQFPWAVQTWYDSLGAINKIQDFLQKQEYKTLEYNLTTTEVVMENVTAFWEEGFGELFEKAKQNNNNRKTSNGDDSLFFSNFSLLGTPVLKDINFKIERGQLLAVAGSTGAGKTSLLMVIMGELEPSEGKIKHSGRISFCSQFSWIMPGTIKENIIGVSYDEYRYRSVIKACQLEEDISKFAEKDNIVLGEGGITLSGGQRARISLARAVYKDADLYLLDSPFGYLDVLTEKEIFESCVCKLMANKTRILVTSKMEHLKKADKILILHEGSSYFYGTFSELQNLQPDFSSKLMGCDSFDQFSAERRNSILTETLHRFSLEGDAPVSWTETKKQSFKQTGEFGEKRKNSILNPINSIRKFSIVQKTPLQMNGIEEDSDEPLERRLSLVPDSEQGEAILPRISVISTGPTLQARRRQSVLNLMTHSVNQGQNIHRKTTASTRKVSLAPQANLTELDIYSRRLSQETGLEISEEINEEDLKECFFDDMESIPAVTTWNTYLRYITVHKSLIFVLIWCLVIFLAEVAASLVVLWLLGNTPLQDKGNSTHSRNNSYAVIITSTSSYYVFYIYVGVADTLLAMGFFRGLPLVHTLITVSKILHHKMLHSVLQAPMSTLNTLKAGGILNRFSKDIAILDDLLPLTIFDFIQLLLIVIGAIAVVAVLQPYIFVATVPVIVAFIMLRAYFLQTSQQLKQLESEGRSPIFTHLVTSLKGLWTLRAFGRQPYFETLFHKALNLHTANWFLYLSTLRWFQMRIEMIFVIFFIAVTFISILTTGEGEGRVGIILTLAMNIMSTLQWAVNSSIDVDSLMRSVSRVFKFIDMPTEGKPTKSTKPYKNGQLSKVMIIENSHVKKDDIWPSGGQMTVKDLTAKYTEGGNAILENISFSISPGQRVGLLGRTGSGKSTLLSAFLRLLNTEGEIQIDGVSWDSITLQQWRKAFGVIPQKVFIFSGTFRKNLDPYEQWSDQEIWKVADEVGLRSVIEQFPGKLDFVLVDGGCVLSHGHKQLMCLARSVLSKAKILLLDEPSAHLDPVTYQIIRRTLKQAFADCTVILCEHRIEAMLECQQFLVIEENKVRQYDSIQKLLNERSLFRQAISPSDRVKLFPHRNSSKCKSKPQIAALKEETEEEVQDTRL
measurement-notes: Membrane potential optical assay (FRET voltage-sensor dyes), identification of correction compounds
Type: cell-based
study-conditions: maximum efficacy; NIH3T3 cells stably expressing F508del; procedures described above; read-out: Max Efficacy
For each entry below, report its Emax value.

Recall the recorded Emax for CCC(C)C(C)Oc1nc(-c2cc(F)cc(OCC(C)C)c2)ccc1C(=O)NS(=O)(=O)c1cccc(N)n1 (centres unmarked) with F508del (Homo sapiens, UniProt P13569, DEL508-508) and state it.
> 80%

Try this compound too: CC(C)COc1cc(F)cc(-c2ccc(C(=O)NS(=O)(=O)c3cccc(N)n3)c(N(C)[C@H](C)C(F)(F)F)n2)c1
> 80%

Another compound to look at: CCC(C)(C)CCOc1nc(-c2cc(F)cc(OCC(C)C)c2)ccc1C(=O)NS(=O)(=O)c1cccc(N)n1
30 to 80%

What do you get for CC(C)COc1cc(F)cc(-c2ccc(C(=O)NS(=O)(=O)c3cccc(N)n3)c(OCC(F)(F)F)n2)c1 ?
30 to 80%

Same lookup for CC(C)COc1cc(F)cc(-c2ccc(C(=O)NS(=O)(=O)c3cccc(N)n3)c(N(C)[C@@H](C)C(F)(F)F)n2)c1 , please.
> 80%

====

target-under-test: F508del (Homo sapiens, UniProt P13569, DEL508-508)
measurement-notes: Membrane potential optical assay (FRET voltage-sensor dyes), identification of correction compounds
study-conditions: modulation of CFTR activity; NIH3T3 cells stably expressing F508del; procedures described above
pEC50: −log10 of the molar value.
readout-type: pEC50

// lookup pEC50 | system=F508del (Homo sapiens, UniProt P13569, DEL508-508) | key= CC(C)COc1cc(F)cc(-c2ccc(C(=O)NS(=O)(=O)c3ccccc3)c(N(C)CCCC(=O)O)n2)c1
< 5.00

Param item: CC(C)COc1cc(F)cc(-c2ccc(C(=O)NS(=O)(=O)c3cccc(N)n3)c(OCCOC(C)(C)C)n2)c1
> 5.52

And the next one, CCCC(C)C(C)Oc1nc(-c2cc(F)cc(OCC(C)C)c2)ccc1C(=O)NS(=O)(=O)c1cccc(N)n1 (stereo not shown) ?
> 5.52

Try the compound C/C=C/COc1nc(-c2cc(F)cc(OCC(C)C)c2)ccc1C(=O)NS(=O)(=O)c1cccc(N)n1
> 5.52

Now consider CCC(CC)N(C)c1nc(-c2cc(F)cc(OCC(C)C)c2)ccc1C(=O)NS(=O)(=O)c1cccc(N)n1 and answer again.
> 5.52

Also, CCCCCOc1nc(-c2cc(F)cc(OCC(C)C)c2)ccc1C(=O)NS(=O)(=O)c1cccc(N)n1 please.
> 5.52

Thanks! And CCCC(C)Oc1nc(-c2cc(F)cc(OCC(C)C)c2)ccc1C(=O)NS(=O)(=O)c1cccc(N)n1 (stereo not shown) ?
> 5.52

Try this compound too: CC(C)COc1cc(F)cc(-c2ccc(C(=O)NS(=O)(=O)c3cccc(N)n3)c(OC(C(F)(F)F)C(F)(F)F)n2)c1
> 5.52

Query CC(C)COc1cc(F)cc(-c2ccc(C(=O)NS(=O)(=O)c3cccc(N)n3)c(OCCC(F)(F)F)n2)c1 next
> 5.52

Also CC(C)COc1cc(F)cc(-c2ccc(C(=O)NS(=O)(=O)c3cccc(N)n3)c3nc(C(F)(F)F)cn23)c1 , if possible.
> 5.52

# repeat for CCCNc1cccc(S(=O)(=O)NC(=O)c2ccc(-c3cc(F)cc(OCC(C)C)c3)nc2NCCC)n1
> 5.52

Item: CC(C)COc1cc(F)cc(-c2ccc(C(=O)NS(=O)(=O)c3cccc(N)n3)c(OC(C)C(C)(C)C)n2)c1 (stereo not shown)
> 5.52

What do you get for CC(C)CCOc1nc(-c2cc(F)cc(OCC(C)C)c2)ccc1C(=O)NS(=O)(=O)c1cccc(N)n1 ?
> 5.52

// next record COCC(C)(C)Oc1nc(-c2cc(F)cc(OCC(C)C)c2)ccc1C(=O)NS(=O)(=O)c1cccc(N)n1
> 5.52

Proceed to CC(C)COc1cc(F)cc(-c2ccc(C(=O)NS(=O)(=O)c3cccc(N)n3)c(NCCC(C)(C)O)n2)c1
< 5.00

And then CC#CCCOc1nc(-c2cc(F)cc(OCC(C)C)c2)ccc1C(=O)NS(=O)(=O)c1cccc(N)n1 , what is it?
> 5.52

====

target-under-test: F508del (Homo sapiens, UniProt P13569, DEL508-508)
Construct: expressed in transfected cells
measurement-notes: Membrane potential optical assay (FRET voltage-sensor dyes), identification of correction compounds
Type: cell-based
study-conditions: maximum efficacy; NIH3T3 cells stably expressing F508del; procedures described above; read-out: Max Efficacy
Give Emax for every item shown.

What Emax value was documented for this molecule, CC(C)COc1cc(F)cc(-c2ccc(C(=O)NS(=O)(=O)c3cccc(N)n3)c(OC(C)CC(C)C)n2)c1 (stereo not shown) ?
> 80%

Similarly, CC(C)COc1cc(F)cc(-c2ccc(C(=O)NS(=O)(=O)c3cccc(N)n3)c(OC(C(C)C)C(C)C)n2)c1 ?
30 to 80%

Now this one: C/C=C/COc1nc(-c2cc(F)cc(OCC(C)C)c2)ccc1C(=O)NS(=O)(=O)c1cccc(N)n1
30 to 80%

What do we get for CC(C)COc1cc(F)cc(-c2ccc(C(=O)NS(=O)(=O)c3cccc(N)n3)c(NC(C)C(C)C)n2)c1 (stereo not shown) ?
30 to 80%
